B1: library; a variant is named by its letters at N, in order (parent)
chain: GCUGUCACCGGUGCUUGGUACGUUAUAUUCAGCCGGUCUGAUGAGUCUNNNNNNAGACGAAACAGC

Variants of: B1
protocol_summary: normalized RNA/DNA level with ligand (relative to sTRSVctl = 100) (log10 (% of sTRSVctl)); HEK293T overexpressing SLC46A1; ligand concentration (+) RNA-Seq: 6 mM; higher = less ribozyme self-cleavage, higher mRNA level
condition_set: with (6R,S)-folinic acid; ligand present: yes
observable: normalized RNA/DNA level with ligand (log10)

| variant_spec | result |
| --- | --- |
| UCCGAC | 2.03 |
| ACGCAC | 2.03 |
| CCUAUC | 2.06 |
| UUAGUG | 1.96 |
| AAUGUU | 1.99 |
| UAUGGA | 1.98 |
| CAGACU | 2.01 |
| CACUCU | 2.04 |
| CGUGUA | 2 |
| CUCGAG | 1.98 |
| UGUAAA | 1.99 |
| UGAGAU | 1.98 |
| ACUGGG | 2.03 |
| AGAAUU | 2.02 |
| GGGUGU | 2.06 |
| UGGGGA | 1.99 |
| GUCCAG | 1.97 |
| CUACAC | 2.02 |
| AUGACG | 2.02 |
| UUAUGG | 1.97 |
| GAAAUA | 2.02 |
| UCAUGC | 2.04 |
| GACCUU | 2.04 |
| UCAAUU | 2.02 |
| GUAGAU | 1.98 |
| CAAUCC | 2.02 |
| CUAUCC | 2.04 |
| CCUGAU | 2.05 |
| AAGCAC | 1.98 |
| AUUUUU | 2.01 |
| CCCAAC | 2.02 |
| UUGCUG | 2.01 |
| GAAGCA | 2 |
| AACGAU | 2 |
| AAUGAC | 1.99 |
| AACCCA | 2.03 |
| UAAUGU | 2 |
| CCCUAA | 2.04 |
| AUUGGU | 1.99 |
| ACACGU | 2.03 |
| UACAUU | 1.99 |
| GGAGCG | 2.02 |
| UGGACU | 2.01 |
| GAUGGC | 2.01 |
| GCUGUC | 2.02 |
| UGCAGC | 2.01 |
| UACGGA | 2 |
| AACUUU | 2.01 |
| CACAUU | 2.02 |
| CGACCA | 2.03 |
| CUGAGG | 2.02 |
| CAUUGC | 1.99 |
| ACCCGG | 2.04 |
| GGAGAG | 1.97 |
| GUCCGC | 2.04 |
| ACAUCC | 2.03 |
| ACAGCU | 2.06 |
| CCGAAA | 2 |
| GACAAU | 1.99 |
| CACAGA | 2.01 |
| UUGGUU | 2.05 |
| CGACAU | 2.02 |
| GCCACU | 2.01 |
| CAUCAU | 2 |
| GUAGUU | 2.02 |
| UCGAUG | 1.97 |
| ACACAG | 2.01 |
| GGGGUG | 2.06 |
| UCGGCC | 2.04 |
| AUACAG | 2 |
| UUUUGA | 2.02 |
| UUGUCA | 2.04 |
| AGAGGU | 2 |
| CUUGGA | 1.99 |
| GCCGGG | 2.05 |
| GGCAUG | 2.03 |
| GCGAUA | 2 |
| UAGAGC | 1.99 |
| ACGAAG | 1.99 |
| UAUUCA | 2.05 |
| CUCCCG | 2.08 |
| UAACAU | 2 |
| AAUCCU | 2.06 |
| UUGAGU | 1.96 |
| CGAUUU | 2 |
| AUACUC | 2.03 |
| AAUAAG | 1.98 |
| UUUACA | 2.03 |
| UAGCAG | 1.96 |
| GGAAGU | 2.01 |
| CGGAUC | 2.03 |

Reference for the values: the supplement of paper PMC6757056
